Cited source for all entries: PubChem BioAssay AID248

# System: L1210 leukemia ip in BDF1 mice, survival T/C
# procedure summary: NCI In Vivo Anticancer Drug Screen. Data for tumor model L1210 Leukemia (intraperitoneal) in B6D2F1 (BDF1) mice
# condition: endpoint: mean survival time; dose: 100.0 mg/kg/injection; schedule: Q04DX002 (ip); vehicle: Klucel (hydroxypropylcellulose) (HPC); higher = longer survival
Inconclusive results and toxic doses are left out. Peptide text beside a SMILES is read from it.
readout kind: T/C

Consider the molecule COC1OC2COC(c3ccccc3)OC2C(NC(C)=O)C1OS(C)(=O)=O (stereo not drawn) and give its recorded T/C. 101 % of control

Consider the molecule COc1ccc(Cl)c(C(=O)O)c1 and give its recorded T/C. 114 % of control

Consider the molecule CC(=O)Cc1cc(C)nc(/N=C(\N)N2CCCCC2)n1 and give its recorded T/C. 92 % of control

Consider the molecule Cc1ccc(C)c(NC(=O)c2ccc(C(=O)O)cc2C(=O)O)c1 and give its recorded T/C. 98 % of control

Consider the molecule CC(=O)NC(CO)C(=O)NCC(=O)NC(CCCN=C(N)N)C(N)=O (stereo not drawn) (Ac-Ser-Gly-Arg-NH2; configuration not given here) and give its recorded T/C. 100 % of control

Consider the molecule O=S1(=O)CC(N2CCCCC2)C12CC1c3ccccc3C2c2ccccc21 (stereo not drawn) and give its recorded T/C. 104 % of control

Consider the molecule O=C(Oc1c(-c2ccccc2)[nH]c2ccccc12)c1ccc([N+](=O)[O-])cc1 and give its recorded T/C. 104 % of control

Consider the molecule CC(Oc1ccccc1)C(=O)Nc1ccc(F)cc1 (stereo not drawn) and give its recorded T/C. 94 % of control

Consider the molecule NC(CC(=O)O)C(=O)O (stereo not drawn) and give its recorded T/C. 98 % of control

Consider the molecule O=C(O)COc1ccc(F)c(F)c1 and give its recorded T/C. 90 % of control

Consider the molecule Nc1nc(N)nc(-c2ccccc2)n1 and give its recorded T/C. 114 % of control

Consider the molecule Cc1c(Cl)ccc2c1S(=O)(=O)c1cccc(Cl)c1-2 and give its recorded T/C. 104 % of control

Consider the molecule CN(CCNC(=O)NCCCCCCNC(=O)NCCN(C)c1ccccc1)c1ccccc1 and give its recorded T/C. 105 % of control

Consider the molecule Cc1ccc(Cl)cc1NC(=O)CCc1ccccc1 and give its recorded T/C. 91 % of control

Consider the molecule O=S(=O)(NC(CCl)=NCc1ccccc1)c1ccccc1 and give its recorded T/C. 96 % of control

Consider the molecule COc1ccc(NC(=O)NC2CCCCC2)c(Cl)c1 and give its recorded T/C. 97 % of control

Consider the molecule C=CCON(CC=C)CC=C and give its recorded T/C. 102 % of control

Consider the molecule CNC(=O)C1C(c2ccccc2)C1c1ccc(C)cc1 (stereo not drawn) and give its recorded T/C. 88 % of control

###

# System: L1210 leukemia ip in BDF1 mice, survival T/C
# procedure summary: NCI In Vivo Anticancer Drug Screen. Data for tumor model L1210 Leukemia (intraperitoneal) in B6D2F1 (BDF1) mice
# condition: endpoint: mean survival time; dose: 200.0 mg/kg/injection; schedule: Q01DX009 (ip); vehicle: saline with Tween-80; higher = longer survival
Inconclusive results and toxic doses are left out.
readout kind: T/C

Consider the molecule Cc1ccccc1OS(=O)(=O)c1cccc([N+](=O)[O-])c1 and give its recorded T/C. 92 % of control

Consider the molecule O=C(NCCCl)NC(C1CC1)C1CC1 and give its recorded T/C. 94 % of control

Consider the molecule Cc1ccc2c(c1)CCCN2C=O and give its recorded T/C. 102 % of control

Consider the molecule Cn1c(CO)cc2ccccc21 and give its recorded T/C. 98 % of control

Consider the molecule O=C1CCCCC1Oc1ccccc1 (configuration not stated) and give its recorded T/C. 101 % of control

Consider the molecule CCOC(=O)Cn1c(C(F)(F)F)nc2nc(Cl)c(Cl)nc21 and give its recorded T/C. 97 % of control

Consider the molecule OC(c1ccccc1)(c1ccccc1)c1ccc(F)cc1 and give its recorded T/C. 101 % of control
